cell viability reference
- Tested on: HepG2
- protocol: cell viability relative to DMSO; higher = less toxic
- conditionNotes: 72 h; 10000 nM
Just the number please, in %, no unit attached.

compound=CN1CCC(=C2c3ccccc3CCc3sccc32)CC1 unitdescriptor=% reading=101
compound="CN1CCN(C(c2ccccc2)c2ccc(Cl)cc2)CC1 (stereo not drawn)" unitdescriptor=% reading=87.9

Moving on to another compound below.
# cell viability lookup, item CC(C)[C@H](CO)Nc1nc(Nc2cc(N)cc(Cl)c2)c2ncn(C(C)C)c2n1 34.6

* * *

- Test system: A549-ACE2 infected with SARS-CoV-2
- protocol: morphology score (similarity to uninfected cells); higher = more like uninfected cells
- conditionNotes: 0.3 µM; 24 h
parameter: morphology score
Lab note: write the figure by itself, no unit.

The examples below pair each entry with its known result.
compound="OC(CCN1CCCCC1)(c1ccccc1)C1CC2C=CC1C2 (stereo not drawn)" reading=-0.01
compound=CCC(CC)COC(=O)[C@H](C)N[P@](=O)(OC[C@H]1O[C@@](C#N)(c2ccc3c(N)ncnn23)[C@H](O)[C@@H]1O)Oc1ccccc1 reading=0.95

Moving on to another compound below.
# morphology score lookup, item C=C[C@@]1(C)CC(=O)[C@]2(O)[C@@]3(C)[C@@H](O)CCC(C)(C)[C@@H]3[C@H](OC(=O)CCN(C)C)[C@H](OC(C)=O)[C@@]2(C)O1 [colforsin-daproate] 0.05
